All figures here come from the FLAb antibody collection.

assay.comment: patients with anti-drug antibodies; higher = more immunogenic
# patients with anti-drug antibodies >= 3% gives True, anything below gives False

Some solved entries appear below for comparison.
1. unnamed (protein) chain 1: QVQLVQSGAEVKKPGASVKVSCKVSGYTLTELSIHWVRQAPGKGLEWMGGFDPEENEIVYAQRFQGRVTMTEDTSTDTAYMELSSLRSEDTAVYYCAIVGSFSPLTLGLWGQGTMVTVSS chain 2: QSVLTQPPSVSGAPGQRVTISCTGSGSNIGAPYDVSWYQQLPGTAPKLLIYHNNKRPSGVPDRFSGSKSGTSASLAITGLQAEDEADYYCATVEAGLSGSVFGGGTKLTVL ... True
2. unnamed (protein) chain 1: EVQLVQSGAEVKKPGASVKVSCKASGYRFTNYWIHWVRQAPGQGLEWIGGINPGNNYATYRRKFQGRVTMTADTSTSTVYMELSSLRSEDTAVYYCTREGYGNYGAWFAYWGQGTLVTVSS chain 2: DVQVTQSPSSLSASVGDRVTITCRSSQSLANSYGNTFLSWYLHKPGKAPQLLIYGISNRFSGVPDRFSGSGSGTDFTLTISSLQPEDFATYYCLQGTHQPYTFGQGTKVEIK ... False
3. unnamed (protein) chain 1: EVQLVESGGGLVKPGGSLRLSCAASGFPFSKLGMVWVRQAPGKGLEWVSTISSGGGYTYYPDSVKGRFTISRDNAKNSLYLQMNSLRAEDTAVYYCAREGISFQGGTYTYVMDYWGQGTLVTVSS chain 2: DIVMTQSPLSLPVTPGEPASISCRSSKSLLHRNGITYSYWYLQKPGQSPQLLIYQLSNLASGVPDRFSGSGSGTDFTLKISRVEAEDVGVYYCYQNLELPLTFGQGTKVEIK ... True
4. unnamed (protein) chain 1: QVQLVESGGGVVQPGRSLRLSCAASGFTFSTYGMHWVRQAPGKGLEWVAVIWDDGSYKYYGDSVKGRFTISRDNSKNTLYLQMNSLRAEDTAVYYCARDGITMVRGVMKDYFDYWGQGTLVTVSS chain 2: AIQLTQSPSSLSASVGDRVTITCRASQDISSALVWYQQKPGKAPKLLIYDASSLESGVPSRFSGSESGTDFTLTISSLQPEDFATYYCQQFNSYPLTFGGGTKVEIK ... False

Could you verify whether the entry unnamed (protein) chain 1: QVQLVQSGAEVKKPGASVKVSCKASGFNIKDTYIHWVRQAPGQRLEWMGRIDPANGYTKYDPKFQGRVTITADTSASTAYMELSSLRSEDTAVYYCAREGYYGNYGVYAMDYWGQGTLVTVSS chain 2: DIQMTQSPSSLSASVGDRVTITCKTSQDINKYMAWYQQTPGKAPRLLIHYTSALQPGIPSRFSGSGSGRDYTFTISSLQPEDIATYYCLQYDNLWTFGQGTKVEIK shows patients with anti-drug antibodies of no less than 3%?
True
